Entry source: patent US8822517B2

Biological target: serotoninergic 5-HT2A receptor (Homo sapiens)
Sequence (P28223 whole entry): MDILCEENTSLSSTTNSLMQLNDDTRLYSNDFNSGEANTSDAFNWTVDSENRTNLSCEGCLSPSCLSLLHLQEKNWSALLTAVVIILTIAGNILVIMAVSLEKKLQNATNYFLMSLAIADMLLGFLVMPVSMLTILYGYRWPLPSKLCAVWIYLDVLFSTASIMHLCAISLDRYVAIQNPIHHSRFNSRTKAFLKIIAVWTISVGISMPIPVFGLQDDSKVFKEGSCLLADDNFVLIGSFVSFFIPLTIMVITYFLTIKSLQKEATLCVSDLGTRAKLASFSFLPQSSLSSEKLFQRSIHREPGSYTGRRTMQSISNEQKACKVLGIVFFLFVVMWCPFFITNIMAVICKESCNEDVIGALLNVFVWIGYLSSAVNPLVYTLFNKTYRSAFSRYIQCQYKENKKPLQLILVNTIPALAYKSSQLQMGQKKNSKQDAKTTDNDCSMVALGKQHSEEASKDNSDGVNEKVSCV
Assay: Binding assay 5-HT2A (h), [3H]ketanserin, HEK-293 cells
Design: expressed in transfected cells; host or cells: HEK-293 cells
Conditions: read-out: 5-HT2A
REPORTED_PROPERTY: inhibition at 1 µM

1. O=S(=O)(NCCCN1CCC(c2noc3cc(F)ccc23)CC1)c1cc2ccc(Cl)cc2s1    101%
2. Cc1cccc(S(=O)(=O)NCCCCN2CCN(c3noc4ccccc34)CC2)c1    99%
3. O=S(=O)(NCCCN1CCC(c2noc3cc(F)ccc23)CC1)c1ccc(F)c(F)c1    91%
4. Cc1[nH]c2ccc(Cl)cc2c1C1=CCN(CCNS(=O)(=O)c2cccc3ccccc23)CC1    19%
5. O=S(=O)(NCCCCN1CCN(c2cccc3[nH]ccc23)CC1)c1cccc(Cl)c1    69%
6. O=S(=O)(NCCCCN1CCC(c2noc3cc(F)ccc23)CC1)c1ccc2ccccc2c1    100%
7. O=c1[nH]c2ccc(S(=O)(=O)NCCCN3CCC(c4noc5cc(F)ccc45)CC3)cc2o1    101%
8. Cc1cccc(S(=O)(=O)NCCN2CCC(c3noc4cc(F)ccc34)CC2)c1    100%
9. O=S(=O)(NCCCCN1CCN(c2cccc3c2OCCO3)CC1)c1csc2ccccc12    66%
10. O=S(=O)(NCCCCN1CCN(c2cccc3c2OCCO3)CC1)c1ccc2ccccc2c1    65%
11. N#Cc1cccc(S(=O)(=O)NCCCCN2CCN(c3cccc4[nH]ccc34)CC2)c1    41%
12. O=S(=O)(NCCCN1CCN(c2cccc3c2OCCO3)CC1)c1csc2ccccc12    58%
13. O=C1COc2c(cccc2N2CCN(CCCCNS(=O)(=O)c3cccc(F)c3)CC2)N1    32%
14. O=S(=O)(NCCCCN1CCN(c2cccc3c2OCCO3)CC1)c1cc2ccccc2s1    82%
15. O=S(=O)(NCCCN1CCN(c2nsc3ccccc23)CC1)c1ccc(Cl)c(Cl)c1    101%
16. O=S(=O)(NCCCCN1CCN(c2noc3ccccc23)CC1)c1cccc(C(F)(F)F)c1    95%
